# Assay explanation: Single intravenous dose escalation of P5P, plasma pharmacokinetics (Examples Two and Three)
# Assay type: in vivo, human
# Recorded conditions: both sexes, human; Group 3, P5P 10 mg/kg single iv; plasma PA; mean; read-out: AUC(0-t)
Measured property: AUC(0-t) (ng·h/mL)
Numbers only; they are read as ng·h/mL.

Query: Find the measured AUC(0-t) of Cc1ncc(CO)c(C(=O)O)c1O [PA, 4-pyridoxic acid] and report it.
Response: 22700

* * *

# Assay explanation: Single intravenous dose escalation of P5P, plasma pharmacokinetics (Examples Two and Three)
# Assay type: in vivo, human
# Recorded conditions: both sexes, human, plasma, iv, 10 mg/kg, Group 4, dose 10 mg/kg, single iv; plasma P5P; mean; read-out: AUC (o-inf)
# Method: A phase one clinical trial was conducted to compare the pharmacokinetics of intravenously administered P5P and orally administered P5P. The trial was a single dose escalation study. […] P5P, pyridoxal, and 4-pyridoxic acid were evaluated in both plasma and urine over a 24 hour interval following either intravenous or oral dosing. […] Concentrations of pyridoxal-5′-phosphate (P5P) were measured from the plasma samples collected over a 24-bour interval after dosing in each phase. […]
Measured property: AUC (µg·h/mL)
Numbers only; they are read as µg·h/mL.

Query: Find the measured AUC of Cc1ncc(COP(=O)(O)O)c(C=O)c1O [P5P, Pyridoxal 5′-phosphate, reference compound] and report it.
Response: 585

Reference for the values: patent US20090018106A1
